Measured values drawn from patent US20100216751A1 for this set.

Experiment: Pharmacokinetic evaluation of liquid bevirimat dosage forms, oral gavage, male Cynomolgus monkeys
Details: male, cynomolgus monkey, in vivo, po, 50 mg/monkey, Plasma Concentration, PG/glycerin/Vitamin ETPGS/ethanol formulation; 1.0 hr; AVG
Measurement Label: concentration at 1 h (ng/mL)
Reply numerically in ng/mL, unit not repeated.

Qu. Kindly indicate its recorded concentration at 1 h. Item: "C=C(C)[C@@H]1CC[C@]2(C(=O)O)CC[C@]3(C)[C@H](CC[C@@H]4[C@@]5(C)CC[C@H](OC(=O)CC(C)(C)C(=O)O)C(C)(C)[C@@H]5CC[C@]43C)[C@@H]12"
Ans. 36900

---

Assay: Pharmacokinetic evaluation of liquid bevirimat dosage forms, oral gavage, male Cynomolgus monkeys
Conditions: male, cynomolgus monkey, in vivo, po, 50 mg FAE, Plasma concentration, 48 hr; 12.5 mg FAE/mL in 40% PG, 20% Glycerin, 0.25% Tween80, 0.2% Povidone K15, 50 mg FAE oral gavage; monkeys 186,116,120,AVG
Measurement Label: concentration at 48 hr
Show the value, then the unit it is measured in.

Qu. Please supply the value of reported concentration at 48 hr for the item "C=C(C)[C@@H]1CC[C@]2(C(=O)O)CC[C@]3(C)[C@H](CC[C@@H]4[C@@]5(C)CC[C@H](OC(=O)CC(C)(C)C(=O)O)C(C)(C)[C@@H]5CC[C@]43C)[C@@H]12"
Ans. 0.0603 µg/mL

---

Assay: Pharmacokinetic evaluation of liquid bevirimat dosage forms, oral gavage, male Cynomolgus monkeys
Conditions: male, cynomolgus monkey, in vivo, po, 50 mg, Cmax, 12.5 mg FAE/mL in 10% HPβCD, 50 mg FAE/monkey oral gavage; monkeys 186,116,120,AVG
Measurement Label: Cmax (µg/mL)
Note: unit µg/mL is implicit; provide only the numeric part.

Qu. Annotate the molecule "C=C(C)[C@@H]1CC[C@]2(C(=O)O)CC[C@]3(C)[C@H](CC[C@@H]4[C@@]5(C)CC[C@H](OC(=O)CC(C)(C)C(=O)O)C(C)(C)[C@@H]5CC[C@]43C)[C@@H]12" with its measured Cmax.
Ans. 59.2

---

Assay: Pharmacokinetic evaluation of liquid bevirimat dosage forms, oral gavage, male Cynomolgus monkeys
Conditions: male, cynomolgus monkey, in vivo, po, 50 mg FAE/monkey
Measurement Label: concentration at 2 hr (µg/mL)
Please state the figure in µg/mL; there is no need to write the unit.

Qu. Please give measured concentration at 2 hr of the following entry: C=C(C)[C@@H]1CC[C@]2(C(=O)O)CC[C@]3(C)[C@H](CC[C@@H]4[C@@]5(C)CC[C@H](OC(=O)CC(C)(C)C(=O)O)C(C)(C)[C@@H]5CC[C@]43C)[C@@H]12 [Bevirimat]
Ans. 93.3

---

Experiment: Pharmacokinetic evaluation of liquid bevirimat dosage forms, oral gavage, male Cynomolgus monkeys
Conditions: male, cynomolgus monkey, in vivo, po, 50 mg FAE/monkey
Source text: Six male Cynomolgus monkeys having an initial body weight of about 3.5 to about 4.5 kg are allowed 7 days to acclimate to their individual housing units. Monkeys are supplied with water and a commercial diet ad libitum prior to the study initiation. Food is withheld from the monkeys for a minimum of twelve hours before the study and during the study until four hours postdose when food is returned. Water is supplied ad libitum. […]
Measurement Label: concentration at 1 hr

Qu. Entry C=C(C)[C@@H]1CC[C@]2(C(=O)O)CC[C@]3(C)[C@H](CC[C@@H]4[C@@]5(C)CC[C@H](OC(=O)CC(C)(C)C(=O)O)C(C)(C)[C@@H]5CC[C@]43C)[C@@H]12 [Bevirimat] needs its concentration at 1 hr filled in; supply it.
Ans. 85.2 µg/mL
